These data points were gathered from patent EP4778922A1.

- experiment-summary: Mouse pharmacokinetic test
- Format: in vivo, ICR mice
- conditions-used: plasma, po, 30 mg/kg, PO-30mpk, read-out: Tmax
Reported Tmax values for the following compounds.
Give a bare numeral; the unit h is implied.

>>> endpoint_result("CC(C)(c1ccc(-c2ccc(OCC3CC4(C3)CS(=N)(=O)C4)cc2)cc1)c1cc(Cl)c(OCCCl)c(C#N)c1 (stereo not shown)")
3

Assign Tmax to the following record: CC(C)(c1ccc(-c2ccc(OCc3ccnc(N=S4(=O)CCCC4)n3)cn2)cc1)c1cc(Cl)c(OCCCl)c(C#N)c1
1.67

Assign Tmax to the following record: CC(C)(c1ccc(-c2ccc3oc(-c4ccnc(P(C)(C)=O)n4)c(N)c3c2)cc1)c1cc(Cl)c(OCCCl)c(C#N)c1
3.33

Assign Tmax to the following record: CC(C)(c1ccc(-c2ccc(OC3CCN(c4ccnc(P(C)(C)=O)n4)CC3)nc2)cc1)c1cc(Cl)c(OCCCl)c(C#N)c1
4

Assign Tmax to the following record: CC(C)(c1ccc(-c2ccc(OCc3ccnc(N4CC(CS(C)(=O)=O)C4)n3)cc2)cc1)c1cc(Cl)c(OCCCl)c(C#N)c1
4

Assign Tmax to the following record: CC(C)(c1ccc(-c2ccc(OCc3ccnc(P(C)(C)=O)n3)cc2)cc1)c1cc(Cl)c(OCCCl)c(C#N)c1
3.3

Assign Tmax to the following record: CC(C)(c1ccc(-c2ccc(OCc3ccnc(N4CC(S(C)(=O)=O)C4)n3)cn2)cc1)c1cc(Cl)c(OCCCl)c(C#N)c1
2

====

- experiment-summary: Mouse pharmacokinetic test
- Type: in vivo, ICR mice
- conditions-used: plasma, po, 30 mg/kg, PO-30mpk
property-measured: Cmax
Enter the number, and then the unit.

>>> endpoint_result("CC(C)(c1ccc(-c2ccc(OC3CCN(c4ccnc(P(C)(C)=O)n4)CC3)cc2)cc1)c1cc(Cl)c(OCCCl)c(C#N)c1 [Compound 48]")
"13000 ng/mL"
>>> endpoint_result("CC(C)(c1ccc(-c2ccc(/C=C/c3ccnc(P(C)(C)=O)n3)cc2)cc1)c1cc(Cl)c(OCCCl)c(C#N)c1 [Compound 228]")
"14500 ng/mL"
>>> endpoint_result("CC(C)(c1ccc(-c2ccc(OCc3cccc(S(C)(=N)=O)n3)cc2)cc1)c1cc(Cl)c(OCCCl)c(C#N)c1 (stereo not drawn) [Compound 188]")
"17300 ng/mL"
>>> endpoint_result("CC(C)(c1ccc(-c2ccc3oc(-c4ccnc(P(C)(C)=O)n4)c(N)c3c2)cc1)c1cc(Cl)c(OCCCl)c(C#N)c1 [Compound 56]")
"29600 ng/mL"

Assign Cmax to the following record: CC(C)(c1ccc(-c2ccc(OCc3ccnc(N=S4(=O)CCCC4)n3)cc2)cc1)c1cc(Cl)c(OCCCl)c(C#N)c1 [Compound 7]
12300 ng/mL

Assign Cmax to the following record: CC(C)(c1ccc(-c2ccc(OCc3ccnc(N4CC(S(C)(=N)=O)C4)n3)cn2)cc1)c1cc(Cl)c(OCCCl)c(C#N)c1 (racemic) [Compound 242]
78000 ng/mL

====

- experiment-summary: Mouse pharmacokinetic test
- Type: in vivo, ICR mice
- conditions-used: plasma, 0.5 mg/kg, IV-0.5mpk
property-measured: C0

Consider the worked cases shown below.
>>> endpoint_result("CC(C)(c1ccc(-c2ccc(OCc3ccnc(P(C)(C)=O)n3)nc2)cc1)c1cc(Cl)c(OCCCl)c(C#N)c1")
"982 ng/mL"
>>> endpoint_result("CC(C)(c1ccc(-c2cnc(OCc3ccnc(N4CC(S(C)(=O)=O)C4)n3)cn2)cc1)c1cc(Cl)c(OCCCl)c(C#N)c1")
"1790 ng/mL"

Okay, next one:
Assign C0 to the following record: CC(C)(c1ccc(-c2ccc(OCc3ccnc(N4CC(S(C)(=O)=O)C4)n3)cn2)cc1)c1cc(Cl)c(OCCCl)c(C#N)c1
3110 ng/mL
